- TARGET OR SYSTEM: Protein cereblon/Histone acetyltransferase p300 (Homo sapiens) (UniProt Q09472+Q96SW2)
- Sequence (Q09472 2-2414 limits assumed): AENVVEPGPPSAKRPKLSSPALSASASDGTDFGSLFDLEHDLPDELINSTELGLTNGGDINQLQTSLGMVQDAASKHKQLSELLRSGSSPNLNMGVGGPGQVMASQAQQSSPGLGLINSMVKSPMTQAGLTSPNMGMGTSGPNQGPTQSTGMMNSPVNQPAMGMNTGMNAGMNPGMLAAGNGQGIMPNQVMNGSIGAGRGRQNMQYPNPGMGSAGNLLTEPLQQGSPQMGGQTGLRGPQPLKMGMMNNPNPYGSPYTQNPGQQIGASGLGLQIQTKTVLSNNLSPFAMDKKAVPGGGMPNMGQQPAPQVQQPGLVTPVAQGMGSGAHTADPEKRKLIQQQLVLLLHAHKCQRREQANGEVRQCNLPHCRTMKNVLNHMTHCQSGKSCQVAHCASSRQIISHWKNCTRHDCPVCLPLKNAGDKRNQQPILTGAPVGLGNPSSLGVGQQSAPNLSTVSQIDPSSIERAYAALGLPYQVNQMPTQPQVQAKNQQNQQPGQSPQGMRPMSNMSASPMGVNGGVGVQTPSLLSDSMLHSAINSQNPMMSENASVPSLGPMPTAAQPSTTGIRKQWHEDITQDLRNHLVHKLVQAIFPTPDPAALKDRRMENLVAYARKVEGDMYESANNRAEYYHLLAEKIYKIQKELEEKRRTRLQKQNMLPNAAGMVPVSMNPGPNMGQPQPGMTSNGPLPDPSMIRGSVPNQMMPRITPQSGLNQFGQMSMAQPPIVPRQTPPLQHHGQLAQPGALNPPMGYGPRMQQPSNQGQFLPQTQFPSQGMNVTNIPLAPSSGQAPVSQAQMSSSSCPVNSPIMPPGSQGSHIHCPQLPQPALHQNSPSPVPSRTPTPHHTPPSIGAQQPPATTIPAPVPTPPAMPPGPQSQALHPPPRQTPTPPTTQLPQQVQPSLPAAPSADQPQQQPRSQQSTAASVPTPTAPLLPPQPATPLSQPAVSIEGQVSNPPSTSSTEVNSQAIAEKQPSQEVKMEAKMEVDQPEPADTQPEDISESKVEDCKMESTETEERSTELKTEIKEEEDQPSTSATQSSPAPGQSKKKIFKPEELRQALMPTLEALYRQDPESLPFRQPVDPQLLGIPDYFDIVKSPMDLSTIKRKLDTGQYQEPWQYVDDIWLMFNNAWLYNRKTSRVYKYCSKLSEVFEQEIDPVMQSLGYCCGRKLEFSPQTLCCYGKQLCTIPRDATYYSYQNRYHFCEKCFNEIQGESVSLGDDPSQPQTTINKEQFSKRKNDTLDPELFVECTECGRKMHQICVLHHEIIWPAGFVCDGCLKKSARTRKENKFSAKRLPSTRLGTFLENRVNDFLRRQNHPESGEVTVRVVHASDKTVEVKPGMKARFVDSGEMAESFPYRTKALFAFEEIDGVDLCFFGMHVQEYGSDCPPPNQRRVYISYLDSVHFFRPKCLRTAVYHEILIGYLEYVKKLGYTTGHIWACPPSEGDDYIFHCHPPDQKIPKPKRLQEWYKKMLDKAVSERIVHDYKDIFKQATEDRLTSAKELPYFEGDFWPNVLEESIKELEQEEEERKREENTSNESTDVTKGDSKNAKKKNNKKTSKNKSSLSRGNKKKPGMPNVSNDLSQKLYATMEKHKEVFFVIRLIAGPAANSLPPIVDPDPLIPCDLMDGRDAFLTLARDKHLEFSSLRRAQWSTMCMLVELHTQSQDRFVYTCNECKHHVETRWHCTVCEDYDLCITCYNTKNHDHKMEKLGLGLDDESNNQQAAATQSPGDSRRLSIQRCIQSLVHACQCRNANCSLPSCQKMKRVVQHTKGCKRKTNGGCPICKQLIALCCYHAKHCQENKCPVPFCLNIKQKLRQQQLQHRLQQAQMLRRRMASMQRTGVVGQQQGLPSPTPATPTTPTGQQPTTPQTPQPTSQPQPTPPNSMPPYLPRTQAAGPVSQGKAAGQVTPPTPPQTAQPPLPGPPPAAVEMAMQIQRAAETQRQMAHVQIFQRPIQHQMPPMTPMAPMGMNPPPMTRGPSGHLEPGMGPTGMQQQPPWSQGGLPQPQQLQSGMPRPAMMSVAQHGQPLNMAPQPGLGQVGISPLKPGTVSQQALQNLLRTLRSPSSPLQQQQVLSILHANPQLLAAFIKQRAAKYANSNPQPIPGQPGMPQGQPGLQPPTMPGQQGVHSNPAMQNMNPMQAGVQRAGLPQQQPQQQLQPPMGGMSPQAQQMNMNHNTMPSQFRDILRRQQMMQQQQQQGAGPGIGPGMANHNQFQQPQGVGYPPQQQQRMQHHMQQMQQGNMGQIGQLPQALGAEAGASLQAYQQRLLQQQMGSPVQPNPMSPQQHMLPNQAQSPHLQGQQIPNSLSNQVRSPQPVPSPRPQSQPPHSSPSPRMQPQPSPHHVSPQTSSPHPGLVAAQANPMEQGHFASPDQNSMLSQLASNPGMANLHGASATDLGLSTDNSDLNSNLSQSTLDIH
- Sequence (Q96SW2 whole entry partner): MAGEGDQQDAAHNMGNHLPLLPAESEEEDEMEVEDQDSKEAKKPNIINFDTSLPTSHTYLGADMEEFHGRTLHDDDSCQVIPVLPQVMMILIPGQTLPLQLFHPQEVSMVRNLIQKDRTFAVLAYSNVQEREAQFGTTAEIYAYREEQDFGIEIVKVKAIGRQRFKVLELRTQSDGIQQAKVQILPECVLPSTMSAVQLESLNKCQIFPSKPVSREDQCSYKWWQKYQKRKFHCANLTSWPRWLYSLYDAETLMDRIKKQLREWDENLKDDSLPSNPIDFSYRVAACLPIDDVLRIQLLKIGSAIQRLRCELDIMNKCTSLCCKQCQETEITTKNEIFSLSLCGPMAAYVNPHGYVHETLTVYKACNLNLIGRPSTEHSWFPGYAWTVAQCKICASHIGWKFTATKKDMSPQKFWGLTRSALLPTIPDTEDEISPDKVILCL
- PROTOCOL: PROTAC activity at CRBN/HiBiT-tagged p300 in human HAP1 cells assessed as total cumulative degradation by measuring AUC at 1 nM measured over 24 hrs by luminescence based analysis
- Assay type: cell-based
REPORTED ENDPOINT: AUC

COMPOUND	OBS VALUE
CNC(=O)N1CCc2c(c(N3CCCc4cc(-c5cnn(CC(=O)NCCOCCOCCOCCOCCNc6ccc7c(c6)C(=O)N(C6CCC(=O)NC6=O)C7=O)c5)c(C(F)F)cc43)nn2C2CCOCC2)C1 (stereo not given)	25.8
CNC(=O)N1CCc2c(c(N3CCCc4cc(-c5cnn(C)c5)c(C(F)F)cc43)nn2C2CCN(C(=O)CCOCCNc3ccc4c(c3)C(=O)N(C3CCC(=O)NC3=O)C4=O)CC2)C1 (stereo not given)	16.1
CNC(=O)N1CCc2c(c(N3CCCc4cc(-c5cnn(CC(=O)NCCOCCOCCOCCOCCOCCOCCNc6ccc7c(c6)C(=O)N(C6CCC(=O)NC6=O)C7=O)c5)c(C(F)F)cc43)nn2C2CCOCC2)C1 (stereo not given)	26.1
CNC(=O)N1CCc2c(c(N3CCN(C(=O)NCCOCCOCCOCCOCCOCCOCCNc4ccc5c(c4)C(=O)N(C4CCC(=O)NC4=O)C5=O)c4cc(-c5cnn(C)c5)c(C(F)(F)F)cc43)nn2C2CCOCC2)C1 (stereo not given)	27.4
CNC(=O)N1CCc2c(c(N3CCCc4cc(-c5cnn(CC(=O)NCCOCCNc6ccc7c(c6)C(=O)N(C6CCC(=O)NC6=O)C7=O)c5)c(C(F)F)cc43)nn2C2CCOCC2)C1 (stereo not given)	22.6
